Data credit: PubChem BioAssay (NCI)

test system: EKVX NSCLC; experiment: NCI-60 one-dose screen, 48 h; settings: 10 µM unless noted
The panel holds about 83,000 compounds, 20% with a hit somewhere; the sample as a whole holds those more often. The source made the active and inactive calls. Rule for the calls: active = growth percent below 10; inactive = the rest.
# output must be one of active, inactive

Here are 6 compounds together with their reported answers.
Compound: Oc1ccc(/C=C/c2ccc(O)cc2)cc1
Assigned Label: inactive

Compound: O=C(Nc1ccccc1N1CCCC1=O)c1oc2ccc(F)cc2c1-c1cnn(-c2ccccc2)c1
Assigned Label: inactive

Compound: N#C/C(=C\C=C\c1ccc(-c2cc(Cl)ccc2Cl)o1)c1nc2ccccc2s1
Assigned Label: inactive

Compound: COC(=O)/C=C1/SC(=Nc2ccc([N+](=O)[O-])cc2)N(CCc2c[nH]c3ccc(O)cc23)C1=O
Assigned Label: inactive

Compound: C=CN(C(=O)N1CCN(c2cc3c(cc2F)c(=O)c(C(=O)O)cn3C2CC2)CC1)c1nc(-c2ccc(OC)cc2)cs1
Assigned Label: inactive

Compound: Cc1ccc(/C=C/C(=O)Nc2ncc(Cc3ccc(F)cc3)s2)o1
Assigned Label: inactive

Prompt: Recorded call for N=C(N)c1ccc(-c2ccc(-c3cc(Cl)cc(Cl)c3)s2)nc1 ?
Response: inactive

Prompt: Recorded call for Cc1cccc(-c2nc(Nc3ccc4ncsc4c3)c3ccccc3n2)n1 ?
Response: inactive

Prompt: Recorded call for Cc1ccc2nc(-c3ccc(C(=O)NNC(=S)Nc4ccccc4)cc3)[nH]c2c1 ?
Response: inactive

Prompt: Recorded call for CCN1CCN(CCNc2nccc(-c3c(-c4ccc(F)c(OC)c4)nc4sccn34)n2)S1(=O)=O ?
Response: inactive

Prompt: Recorded call for CCN1C(=O)N(CC)C2Nn3c(s/c(=C\c4ccccc4Br)c3=O)=NC21 (configuration not stated) ?
Response: inactive

Prompt: Recorded call for Cc1ccc(-c2nc(-c3cn(C)c4ncccc34)cs2)cc1 ?
Response: active

Prompt: Recorded call for CCCCNC(=O)Oc1ccc(/C(=C(/C)Cc2ccc(OC)cc2)c2ccc(OCCN3CCCCCC3)cc2)cc1 ?
Response: inactive

Prompt: Recorded call for COc1ccc(-c2nc(-c3cn(C)c4ncccc34)cs2)cc1 ?
Response: active

Prompt: Recorded call for COc1ccc(/C=C2\CN(C(=O)C(Cl)Cl)C/C(=C\c3ccc(OC)cc3)C2=O)cc1 ?
Response: inactive

====

system: A549/ATCC NSCLC; test: NCI-60 one-dose screen, 48 h (100 = growth as untreated, 0 = no growth, -100 = all killed); settings: 10 µM unless noted
This is part of a sample that, as a whole, favours compounds with a hit. Of some 83,000 tested, about 20% had one in any assay.
Field: class. Source value: growth. Ranges: lower segment (below 30%), middle segment (30% to below 80%), upper segment (80% or more)

Here are 5 molecules together with their reported answers.
Smiles Text: C=C1C(=O)O[C@H]2[C@H]1CC/C(Cn1cc(CCC)nn1)=C\CC[C@@]1(C)O[C@@H]21
Assigned Label: middle segment

Smiles Text: CS(=O)(=O)c1nnc(-c2ccccc2)s1
Assigned Label: upper segment

Smiles Text: Cc1ccc(S(=O)(=O)N2CCC(=O)c3ccccc32)cc1
Assigned Label: upper segment

Smiles Text: O=C(Nc1ccccc1O)c1ccc(CNC(=O)c2ccsc2Nc2ccnc(C(F)(F)F)c2)cc1
Assigned Label: lower segment

Smiles Text: CN1CCN(CC(=O)Nc2ccc3ncnc(Nc4ccc(Oc5cccc(C(F)(F)F)c5)c(Cl)c4)c3c2)CC1
Assigned Label: lower segment

Prompt: Each molecule maps to one class by growth. Which class for CCOC(=O)c1c(C)nc2c(c1N)CC(=O)N2Cc1ccc(OC)cc1 ?
Response: lower segment

Prompt: Each molecule maps to one class by growth. Which class for O=C(O)[C@@H](Cc1ccc2ccccc2c1)NC(=O)n1c2ccccc2c2ccccc21 ?
Response: middle segment

Prompt: Each molecule maps to one class by growth. Which class for COc1ccc(C(=O)N2c3ccccc3Sc3ccccc32)c(C(F)(F)F)c1 ?
Response: lower segment

Prompt: Each molecule maps to one class by growth. Which class for Cc1ccc(C=C2C(=O)NC(=O)NC2=O)cc1 ?
Response: upper segment

====

System: SNB-75 CNS
Test: NCI-60 one-dose screen, 48 h
Details: 10 µM unless noted
Procedure: Growth inhibition of the SNB-75 human tumor cell line is measured as a screen for anti-cancer activity. Cells are grown in 96 well plates and exposed to the test compound for 48 hours. Compounds are tested at a single concentration, which is 10^-5 M for most compounds. The reported endpoint is percent growth (GI% or GIPRCNT), where numbers from 0 - 100% represent growth inhibition, and numbers from -100% - 0 represent cell death. For example, a value of 40 represents 60% growth inhibition. […]
Compounds without any hit were thinned out: in the full panel of roughly 83,000, 20% have a hit. Active and inactive are the calls of the source. Rule for the calls: active = growth percent below 10; inactive = the rest.
# output must be one of active, inactive

Here are 10 compounds together with their reported answers.
Compound: CC1=C2[C@@H](CC1)[C@]1(C)O[C@@](c3ccccc3)(C[C@H]1OC(=O)CO)[C@H]2OC(=O)/C=C/c1ccccc1
Subject Of Test: SNB-75 CNS
Assigned Label: active
//
Compound: COc1cnc2c(c1)C(=O)c1c-2n(CCCCl)c(=O)c2ccncc12
Subject Of Test: SNB-75 CNS
Assigned Label: inactive
//
Compound: N#Cc1ccc(O)c(C2=NCC(Cc3ccccc3)O2)c1 (stereo not given)
Subject Of Test: SNB-75 CNS
Assigned Label: inactive
//
Compound: CCc1ccc(CCC(=O)Nc2ncc(Cc3ccccc3)s2)o1
Subject Of Test: SNB-75 CNS
Assigned Label: active
//
Compound: O=C(Cn1nnc2ccccc21)N/N=C/c1c[nH]c2ccccc12
Subject Of Test: SNB-75 CNS
Assigned Label: inactive
//
Compound: CCOC(=O)c1c(C)nc2ccccc2c1/C=C/c1ccccc1
Subject Of Test: SNB-75 CNS
Assigned Label: inactive
//
Compound: CN(C)c1ccc(-c2nc(-c3ccccc3)c(-c3ccccc3)[nH]2)cc1
Subject Of Test: SNB-75 CNS
Assigned Label: inactive
//
Compound: COC(=O)C(Cc1ccccc1)NC(=O)c1ccc(NC(=O)c2[nH]c(C)c(Cl)c2Cl)c(OC(C)C)c1 (stereo not given)
Subject Of Test: SNB-75 CNS
Assigned Label: inactive
//
Compound: Cc1cn(-c2cc(NC(=O)c3cncc(C#Cc4c(N)ncc5ccc(F)cc45)c3)cc(C(F)(F)F)c2)cn1
Subject Of Test: SNB-75 CNS
Assigned Label: inactive
//
Compound: Cn1c2c(c3ccc(Cl)c(Cl)c31)C(C#N)C(C)(C)NC2=O (stereo not given)
Subject Of Test: SNB-75 CNS
Assigned Label: inactive

Prompt: Recorded call for NS(=O)(=O)c1ccc(NC(=O)/C(=C\c2ccc(Cl)cc2Cl)NC(=O)c2ccccc2)cc1 ?
Response: inactive

Prompt: Recorded call for CC(=O)/C(=C/c1ccc([N+](=O)[O-])cc1)C(=O)c1ccccc1 ?
Response: inactive

Prompt: Recorded call for Cc1nn(-c2cc(NC3CCC(O)CC3)c3c(=O)[nH]c(CCC(F)(F)F)cc3c2)c2c1C(=O)CC(C)(C)C2 (stereo not given) ?
Response: inactive

Prompt: Recorded call for CCCCCN(CCCCC)CC(O)c1cc(C)c2ccc3cc(C(C)C)ccc3c2c1 (stereo not given) ?
Response: inactive

Prompt: Recorded call for COCCn1cc(-c2csc(-c3c[nH]c4ccc(Br)cc34)n2)c2cccnc21 ?
Response: inactive

Prompt: Recorded call for COc1cc(/C=C2\CN(S(=O)(=O)c3ccccc3)C/C(=C\c3cc(CN4CCCCC4)c(O)c(OC)c3)C2=O)cc(CN2CCCCC2)c1O ?
Response: active

Prompt: Recorded call for COc1cc2c(c(OC)c1OC)C(=O)CC(c1cccc(NC(=O)c3ccc(C#N)cc3)c1)O2 (stereo not given) ?
Response: inactive

Prompt: Recorded call for Nc1[nH]c(=S)nc2oc(-c3ccccc3)c(-c3ccccc3)c12 ?
Response: inactive

Prompt: Recorded call for Cc1cccc(-c2nc(Nc3ccc4ncsc4c3)c3ccccc3n2)n1 ?
Response: inactive

Prompt: Recorded call for CCOC(=O)C(Cc1ccc(OC)cc1)C(=O)OCC ?
Response: inactive

Prompt: Recorded call for CCOC(=O)/C=C1\S/C(=N\Nc2cc(=O)[nH]c3ccccc23)N(c2ccccc2)C1=O ?
Response: inactive

Prompt: Recorded call for OCCNCCNC(Cc1ccc(Cl)cc1)c1ccccc1 (stereo not given) ?
Response: inactive

Prompt: Recorded call for CC1=C(CCC(C)NCc2ccc(OCCCN3CCCCC3)cc2)C(C)(C)CCC1 (stereo not given) ?
Response: active

Prompt: Recorded call for CCN(CC)CCN1C(=O)c2c(c(C)c3c(oc4ccc(OC)cc43)c2C)C1=O ?
Response: inactive

Prompt: Recorded call for O=C1c2ccccc2C(=O)c2c1c(C(=O)NCc1ccccc1)c1ccccn21 ?
Response: inactive

Prompt: Recorded call for Oc1c(CN2CCC(N3CCCCC3)CC2)cc(Cc2cc(CN3CCC(N4CCCCC4)CC3)c(O)c3ncccc23)c2cccnc12 ?
Response: inactive

Prompt: Recorded call for COc1cc(/C=C/C(=O)/C=C(O)/C=C/c2ccc(OC(=O)C34CC5CC(CC(C5)C3)C4)c(OC)c2)ccc1OC(=O)C12CC3CC(CC(C3)C1)C2 ?
Response: inactive

Prompt: Recorded call for Cc1cccc(Oc2ccc(Nc3ncnc4ccc(NC(=O)CN5CCN(C)CC5)cc34)cc2Cl)c1 ?
Response: inactive

Prompt: Recorded call for COc1cccc(/C=C/C(=O)c2cc3c(N)c(C(=O)Nc4cccc5ccccc45)sc3nc2C)c1 ?
Response: active

Prompt: Recorded call for N#Cc1nc(-c2ccccc2)oc1S(=O)(=O)N1CCN(c2ccc(F)cc2)CC1 ?
Response: inactive

Prompt: Recorded call for COc1ccc(-c2nc(-c3cn(C)c4ncccc34)cs2)cc1 ?
Response: active

Prompt: Recorded call for COc1ccc(N2CCC(=S)NC2=S)cc1 ?
Response: inactive

Prompt: Recorded call for CCOC(=O)c1c(C)nc2ccccc2c1/C=C/c1cccs1 ?
Response: inactive

Prompt: Recorded call for CCCCNC(=O)Oc1ccc(/C(=C(/C)Cc2ccc(OC)cc2)c2ccc(OCCN3CCCCC3)cc2)cc1 ?
Response: inactive

Prompt: Recorded call for COc1cc2c(cc1OCCCCN1CCN(C(=S)SCCC(C#N)(c3ccccc3)c3ccccc3)CC1)N=C[C@@H]1CCCN1C2=O ?
Response: active
